- Study target: T1, RppH;DapF (Escherichia coli DH5alpha;Escherichia …, UniProt P0A776;P0A6K1 1-176;1-274, |)
- T1 sequence 1: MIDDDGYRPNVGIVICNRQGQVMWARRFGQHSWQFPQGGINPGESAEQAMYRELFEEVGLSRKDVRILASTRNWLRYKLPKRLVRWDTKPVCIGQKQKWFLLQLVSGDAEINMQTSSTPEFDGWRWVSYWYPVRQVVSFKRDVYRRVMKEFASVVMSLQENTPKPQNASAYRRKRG
- T1 sequence 2: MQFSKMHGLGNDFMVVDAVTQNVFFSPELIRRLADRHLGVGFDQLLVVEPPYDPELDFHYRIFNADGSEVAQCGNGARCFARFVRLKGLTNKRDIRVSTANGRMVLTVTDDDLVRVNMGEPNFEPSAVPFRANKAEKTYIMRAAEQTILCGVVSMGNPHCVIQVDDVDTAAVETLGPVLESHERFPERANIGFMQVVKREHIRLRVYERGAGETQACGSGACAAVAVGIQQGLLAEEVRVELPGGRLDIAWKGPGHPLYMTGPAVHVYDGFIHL
- Run description: ITC
Outcome measure: Kd

Need Kd, item AGAACAAC (ssRNA, 5'-triphosphate) [8 nt RNA pppAGAACAAC]
~120 µM
